assay: physchem; details: acetone, 56 °C, organic solvent or mixture, thermodynamic from solid
QUANTITY: solubility

In one line, give reported solubility of the entry CCCCCC[C@](C)(O)[C@H]1CC[C@H]2[C@@H]3C[C@H](O)[C@H]4C[C@@H](O)CC[C@]4(C)[C@H]3CC[C@@]21C [Form B] .
~80 mg/mL

###

experiment: Karl-Fisher (KF) water determination of isolated solid; format: physicochemical; settings: OXY133 sample; method/solvent system, processing point, temperature and time as in the table row
Listed here are compounds together with their documented KF (water content determined by Karl Fischer water determination method).
# unit: % | format: bare number

The following compounds have reported results that may help.
CCCCCC[C@](C)(O)[C@H]1CC[C@H]2[C@@H]3C[C@H](O)[C@H]4C[C@@H](O)CC[C@]4(C)[C@H]3CC[C@@]21C [Form 2891-8-3] | 3.25
CCCCCC[C@](C)(O)[C@H]1CC[C@H]2[C@@H]3C[C@H](O)[C@H]4C[C@@H](O)CC[C@]4(C)[C@H]3CC[C@@]21C [Form 2891-9-3] | 3.83

Next up:
In one line, give reported KF (water content determined by Karl Fischer water determination method) of the entry CCCCCC[C@](C)(O)[C@H]1CC[C@H]2[C@@H]3C[C@H](O)[C@H]4C[C@@H](O)CC[C@]4(C)[C@H]3CC[C@@]21C [Form 2891-10-3] .
4.02

src = patent US20170275330A1
